target: PBP3 from Pseudomonas aeruginosa (PAO1) (Pseudomonas aeruginosa, UniProt G3XD46); test: Bocillin-FL fluorescence polarization competition binding, P. aeruginosa PBP3; settings: Binding affinity to P. aeruginosa PBP3; fluorescence polarization competition binding assay using Bocillin-FL; read-out: P. aeruginosa PBP3 Potency
Sequence (G3XD46 whole entry): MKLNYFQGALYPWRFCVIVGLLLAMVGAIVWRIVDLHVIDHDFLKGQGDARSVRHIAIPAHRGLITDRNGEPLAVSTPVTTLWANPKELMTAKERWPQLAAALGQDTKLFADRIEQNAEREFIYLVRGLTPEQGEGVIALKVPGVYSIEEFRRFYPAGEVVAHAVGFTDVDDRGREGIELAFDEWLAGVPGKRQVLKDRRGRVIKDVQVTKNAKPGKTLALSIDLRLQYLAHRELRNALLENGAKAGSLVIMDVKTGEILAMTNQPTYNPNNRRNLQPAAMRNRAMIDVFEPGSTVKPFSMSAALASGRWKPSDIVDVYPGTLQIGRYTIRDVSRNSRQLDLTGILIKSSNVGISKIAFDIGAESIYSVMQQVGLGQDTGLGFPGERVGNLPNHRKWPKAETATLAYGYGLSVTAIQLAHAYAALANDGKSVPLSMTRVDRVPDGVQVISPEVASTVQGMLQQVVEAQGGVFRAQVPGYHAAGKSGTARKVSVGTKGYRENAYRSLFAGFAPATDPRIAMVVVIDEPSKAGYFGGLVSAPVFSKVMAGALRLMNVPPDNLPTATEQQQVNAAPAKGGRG
property.name: IC50

- molecule: "O=C(O)c1c(F)ccc2c1OB(O)[C@@H](NC(=O)[C@H](NC(=O)N1CCN(C3CCN(C(=O)Nc4ccc(O)c(O)c4Cl)CC3)C1=O)c1ccc(P(=O)(O)O)cc1)C2 (single isomer, unassigned)"
  assayed.target: "PBP3 from Pseudomonas aeruginosa (PAO1) (Pseudomonas aeruginosa, UniProt G3XD46)"
  IC50: "< 10 µM"
- molecule: "O=C(CN1CCN(C(=O)NC(C(=O)N[C@H]2Cc3ccc(F)c(C(=O)O)c3OB2O)c2cc(F)c(O)c(O)c2Cl)C(=O)C1=O)Nc1ccncc1 (stereo partly drawn)"
  assayed.target: "PBP3 from Pseudomonas aeruginosa (PAO1) (Pseudomonas aeruginosa, UniProt G3XD46)"
  IC50: "< 10 µM"

**Query** Recorded IC50 of O=C(NCCCN1CCN(C(=O)NC(C(=O)N[C@H]2Cc3ccc(F)c(C(=O)O)c3OB2O)c2cc(F)c(O)c(O)c2Cl)C(=O)C1=O)c1cc(F)ncc1F (mixture of isomers) , please.
**Result** < 10 µM

* * *

Parameter MIC: see the listing below.
test system: N. gonorrhoeae WHO G; assay: Liquid broth MIC in Fastidious broth; conditions: Neisseria gonorrhoeae, read-out: Minimum Inhibitory Concentration, WHO G

Answered examples (3):
- compound: "O=C(NCCCN1CCN(C(=O)NC(C(=O)N[C@H]2Cc3ccc(F)c(C(=O)O)c3OB2O)c2cc(F)c(O)c(O)c2Cl)C(=O)C1=O)c1ccc(O)c(Cl)c1 (stereo partly drawn) [Example 305]"
  observed.measurement: "16 to 32 µg/mL"
- compound: "O=C(NCCS(=O)(=O)N1CCN(C(=O)NC(C(=O)N[C@H]2Cc3ccc(F)c(C(=O)O)c3OB2O)c2cc(F)c(O)c(O)c2Cl)C1=O)c1ccccc1 (stereo partly drawn) [Example 260]"
  observed.measurement: "16 to 32 µg/mL"
- compound: "O=C(NCCCN1CCN(C(=O)N[C@@H](C(=O)N[C@H]2Cc3ccc(F)c(C(=O)O)c3OB2O)c2cc(F)c(O)c(O)c2Cl)C1=O)Nc1cccc(O)c1 [Example 258]"
  observed.measurement: "4 to 8 µg/mL"

**Query** Recorded MIC of O=C(NCCCN1CCN(C(=O)NC(C(=O)N[C@H]2Cc3ccc(F)c(C(=O)O)c3OB2O)c2cc(F)c(O)c(O)c2Cl)C1=O)Nc1cccnc1 (stereo partly drawn) [Example 259] , please.
**Result** 16 to 32 µg/mL

**Query** Recorded MIC of O=C(NCCCS(=O)(=O)N1CCN(C(=O)NC(C(=O)N[C@H]2Cc3ccc(F)c(C(=O)O)c3OB2O)c2cc(F)c(O)c(O)c2Cl)C1=O)Nc1cccnc1 (stereo partly drawn) [Example 278] , please.
**Result** 16 to 32 µg/mL

**Query** Recorded MIC of O=C(NCCCN1CCN(C(=O)N[C@@H](C(=O)N[C@H]2Cc3ccc(F)c(C(=O)O)c3OB2O)c2cc(F)c(O)c(O)c2Cl)C(=O)C1=O)c1ccncc1 [Example 294] , please.
**Result** 16 to 32 µg/mL

* * *

target: PBP3 from Escherichia coli (K-12) (Escherichia coli); construct: made in house; experiment: Bocillin-FL fluorescence polarization competition binding, E. coli PBP3
Sequence (P0AD68 1-577): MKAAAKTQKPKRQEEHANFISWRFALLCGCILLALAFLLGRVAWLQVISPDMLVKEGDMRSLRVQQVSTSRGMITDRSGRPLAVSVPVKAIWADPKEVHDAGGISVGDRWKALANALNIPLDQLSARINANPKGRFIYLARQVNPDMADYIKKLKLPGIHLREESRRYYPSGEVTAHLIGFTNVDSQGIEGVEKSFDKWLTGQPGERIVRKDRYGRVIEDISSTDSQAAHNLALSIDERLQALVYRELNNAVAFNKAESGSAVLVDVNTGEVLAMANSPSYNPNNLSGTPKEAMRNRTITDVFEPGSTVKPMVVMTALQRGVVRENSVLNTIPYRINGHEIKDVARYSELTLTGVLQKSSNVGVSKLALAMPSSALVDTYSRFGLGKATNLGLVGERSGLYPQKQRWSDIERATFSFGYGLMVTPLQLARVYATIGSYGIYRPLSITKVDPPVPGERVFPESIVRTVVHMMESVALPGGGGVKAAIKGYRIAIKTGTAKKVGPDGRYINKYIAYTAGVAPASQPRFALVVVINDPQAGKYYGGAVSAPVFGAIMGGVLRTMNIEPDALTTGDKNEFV
pEC50: −log10 of the molar value.
property.name: pEC50

- compound: "O=C(NCCCS(=O)(=O)N1CCN(C(=O)NC(C(=O)N[C@H]2Cc3ccc(F)c(C(=O)O)c3OB2O)c2cc(F)c(O)c(O)c2Cl)C1=O)Nc1cccc(O)c1 (stereo partly drawn)"
  property.name: "pEC50"
  observed.measurement: "> 5.00"
- compound: "O=C(NCCCN1CCN(C(=O)N[C@H](C(=O)N[C@H]2Cc3ccc(F)c(C(=O)O)c3OB2O)c2cc(F)c(O)c(O)c2Cl)C1=O)c1ccccc1"
  property.name: "pEC50"
  observed.measurement: "< 3.60"

**Query** Recorded pEC50 of O=C(O)c1c(F)ccc2c1OB(O)[C@@H](NC(=O)C(NC(=O)N1CCN(C3CCN(C(=O)c4cccc(O)c4)CC3)C(=O)C1=O)c1cc(F)c(O)c(O)c1Cl)C2 (stereo partly drawn) , please.
**Result** > 5.00

* * *

Parameter MIC: see the listing below.
test system: B. humptydooensis ATCC BAA-2767; test: microbe, parasite or virus in culture; format: cell-based; settings: Burkholderia humptydooensis, ATCCBAA2767, read-out: Minimum inhibitory concentration (MIC), B. humptydooensis ATCC BAA-2767

**Query** Recorded MIC of O=C(NCCCN1CCN(C(=O)NC(C(=O)N[C@H]2Cc3ccc(F)c(C(=O)O)c3OB2O)c2cc(F)c(O)c(O)c2Cl)C(=O)C1=O)c1nccs1 (stereo partly shown) , please.
**Result** < 1 µg/mL

**Query** Recorded MIC of O=C(NCCCN1CCN(C(=O)NC(C(=O)N[C@H]2Cc3ccc(F)c(C(=O)O)c3OB2O)c2cc(F)c(O)c(O)c2Cl)C(=O)C1=O)c1ccc(F)c(O)c1Cl (stereo partly shown) , please.
**Result** 2 to 4 µg/mL

**Query** Recorded MIC of O=C(NCCN1CCN(C(=O)NC(C(=O)N[C@H]2Cc3ccc(F)c(C(=O)O)c3OB2O)c2cc(F)c(O)c(O)c2Cl)C(=O)C1=O)c1nccs1 (stereo partly shown) , please.
**Result** 2 to 4 µg/mL

**Query** Recorded MIC of O=C(O)c1c(F)ccc2c1OB(O)[C@@H](NC(=O)[C@H](NC(=O)N1CCN(C3CCN(C(=O)Nc4cccc(O)c4Cl)CC3)C(=O)C1=O)c1cc(F)c(O)c(O)c1Cl)C2 , please.
**Result** 2 to 4 µg/mL

**Query** Recorded MIC of O=C(NCCN1CCN(C(=O)NC(C(=O)N[C@H]2Cc3ccc(F)c(C(=O)O)c3OB2O)c2cc(F)c(O)c(O)c2Cl)C(=O)C1=O)c1ccc(O)cc1 (stereo partly shown) , please.
**Result** < 1 µg/mL

**Query** Recorded MIC of O=C(NCCCN1CCN(C(=O)NC(C(=O)N[C@H]2Cc3ccc(F)c(C(=O)O)c3OB2O)c2cc(F)c(O)c(O)c2Cl)C1=O)c1cccnc1 (stereo partly shown) , please.
**Result** < 1 µg/mL

**Query** Recorded MIC of O=C(NCCN1CCN(C(=O)NC(C(=O)N[C@H]2Cc3ccc(F)c(C(=O)O)c3OB2O)c2cc(F)c(O)c(O)c2Cl)C1=O)Nc1cccnc1 (stereo partly shown) , please.
**Result** < 1 µg/mL

**Query** Recorded MIC of O=C(O)c1c(F)ccc2c1OB(O)[C@@H](NC(=O)[C@H](NC(=O)N1CCN(C3CCN(C(=O)c4cccc(O)c4)CC3)C1=O)c1cc(F)c(O)c(O)c1Cl)C2 (single isomer, unassigned) , please.
**Result** < 1 µg/mL

**Query** Recorded MIC of O=C(NCCN1CCN(C(=O)NC(C(=O)N[C@H]2Cc3ccc(F)c(C(=O)O)c3OB2O)c2cc(F)c(O)c(O)c2Cl)C1=O)Nc1ccncc1 (stereo partly shown) , please.
**Result** < 1 µg/mL

**Query** Recorded MIC of O=C(NCCCN1CCN(C(=O)NC(C(=O)N[C@H]2Cc3ccc(F)c(C(=O)O)c3OB2O)c2cc(F)c(O)c(O)c2Cl)C1=O)c1ccc(O)cc1 (stereo partly shown) , please.
**Result** 2 to 4 µg/mL

**Query** Recorded MIC of O=C(O)c1c(F)ccc2c1OB(O)[C@@H](NC(=O)[C@H](NC(=O)N1CCN(C3CCN(C(=O)c4cc(O)c(F)c(O)c4)CC3)C1=O)c1cc(F)c(O)c(O)c1Cl)C2 (single isomer, unassigned) , please.
**Result** < 1 µg/mL

**Query** Recorded MIC of O=C(NCCCN1CCN(C(=O)NC(C(=O)N[C@H]2Cc3ccc(F)c(C(=O)O)c3OB2O)c2cc(F)c(O)c(O)c2Cl)C(=O)C1=O)c1cc(O)c(F)c(O)c1 (stereo partly shown) , please.
**Result** < 1 µg/mL

**Query** Recorded MIC of O=C(O)c1c(F)ccc2c1OB(O)[C@@H](NC(=O)[C@H](NC(=O)N1CCN(C3CCN(C(=O)c4cc(O)c(F)c(O)c4F)CC3)C1=O)c1cc(F)c(O)c(O)c1Cl)C2 (single isomer, unassigned) , please.
**Result** < 1 µg/mL

**Query** Recorded MIC of O=C(NCCCN1CCN(C(=O)N[C@@H](C(=O)N[C@H]2Cc3ccc(F)c(C(=O)O)c3OB2O)c2cc(F)c(O)c(O)c2Cl)C(=O)C1=O)c1ccc(O)cc1F (racemic) , please.
**Result** > 128 µg/mL

**Query** Recorded MIC of O=C(NCCN1CCN(C(=O)NC(C(=O)N[C@H]2Cc3ccc(F)c(C(=O)O)c3OB2O)c2cc(F)c(O)c(O)c2Cl)C(=O)C1=O)c1cccnc1 (stereo partly shown) , please.
**Result** < 1 µg/mL

**Query** Recorded MIC of O=C(O)c1c(F)ccc2c1OB(O)[C@@H](NC(=O)[C@H](NC(=O)N1CCN(C3CCN(C(=O)c4c(F)ccc(O)c4F)CC3)C1=O)c1cc(F)c(O)c(O)c1Cl)C2 (single isomer, unassigned) , please.
**Result** < 1 µg/mL
